Molecular target: alpha-thrombin (Homo sapiens, UniProt P00734;P00734 P00734:328-363,P00734:364-622)
Test: BLI; ±0.002; kon 91.9e4 M-1 s-1, koff 4.12e-4 s-1; RNA immobilized on streptavidin sensor; 20 mM Tris pH 7.5, 150 mM NaCl, 2 mM MgSO4, 2 mg/mL BSA, 0.1% Tween-20
MEASURED_METRIC: pKd
Expect pKd as a plain number equal to -log10 of the molar concentration.

INPUT: // pKd lookup, key: GUGUUCACAAGAUAGAGUAGACUAAGUGACAC (ssRNA) [Truncated clone 9]
OUTPUT: 9.35
